Assay: Inhibition of beta-hematin formation after 5 to 6 hrs by pyridine-ferrichrome detergent-mediated assay
Assay type: physicochemical
measured-attribute: pIC50
Note: pIC50 values are expressed as the negative base-10 logarithm of concentration in M.

// pIC50 lookup, key: `CCN(CC)CCCNc1c2ccc(Cl)cc2nc2c3ccccc3n(CCN3CCOCC3)c12`
4.57

// pIC50 lookup, key: `Clc1ccc2c(NCCN3CCCC3)c3c(nc2c1)c1ccccc1n3CCN1CCCC1`
4.10

// pIC50 lookup, key: `Clc1ccc2c(NCCCN3CCOCC3)c3c(nc2c1)c1cc(Cl)ccc1n3CCN1CCCC1`
4.76
